The reader will find reported IC50 values listed item by item below.
- ASSAY METHOD TEXT: cells
- Assay type: functional
Active and inactive are the calls of the source.

Record excerpt, results attached:
>>> observed_result("CCc1ccc(NC(=O)C(=O)NNC(=O)COc2cccc(OC)c2)cc1")
"5.58 µM (active)"
>>> observed_result("CN1/C(=C\\C(=O)COC(=O)C2COc3ccccc3O2)C(C)(C)c2ccccc21 (configuration not stated)")
"48.2 µM (active)"
>>> observed_result("C#CCSc1nnc(-c2ccc([N+](=O)[O-])cc2)o1")
"9.4 µM (active)"
>>> observed_result("O=C(Nc1nc2ccccc2n1CCN1CCCC1)c1ccc(Cl)cc1")
"25.4 µM (active)"
>>> observed_result("O=C(NNC(=O)c1ccccn1)c1cccc([N+](=O)[O-])c1")
"10.9 µM (active)"

Problem: Consider the compound `COc1cccc(/C=C2\SC(=S)N(CCC(=O)N3CCCCC3)C2=O)c1` . State its measured IC50.
Solution: 17.2 µM (active)

Problem: Consider the compound `Cc1[nH]n(S(=O)(=O)Cc2ccccc2)c(=O)c1N=Nc1ccccc1Cl` . State its measured IC50.
Solution: 8.42 µM (active)

----------
- MEASUREMENT TARGET: UniProt:P43351
- Sequence (P43351 whole entry): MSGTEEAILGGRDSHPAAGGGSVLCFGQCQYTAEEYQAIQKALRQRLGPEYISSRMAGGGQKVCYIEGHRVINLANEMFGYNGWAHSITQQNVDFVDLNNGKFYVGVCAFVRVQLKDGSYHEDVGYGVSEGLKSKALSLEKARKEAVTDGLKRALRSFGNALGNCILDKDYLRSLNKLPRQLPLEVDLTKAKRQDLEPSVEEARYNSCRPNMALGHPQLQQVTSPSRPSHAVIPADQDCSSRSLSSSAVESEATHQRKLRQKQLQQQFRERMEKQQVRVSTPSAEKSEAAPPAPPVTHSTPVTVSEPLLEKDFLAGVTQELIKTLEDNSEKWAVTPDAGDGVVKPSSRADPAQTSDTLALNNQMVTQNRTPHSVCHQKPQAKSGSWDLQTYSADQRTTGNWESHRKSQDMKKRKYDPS
- Assay type: functional, biochemical
Activity calls are given as the source filed them.
READOUT KIND: AC50

Solved entries (count: 3):
>>> observed_result("CN(C)CCCNc1ncnc2sc(-c3ccccc3)cc12")
"14.6 µM (active)"
>>> observed_result("CC(=O)Nc1cc(-c2ccc(N3CCN(C)CC3)cc2)cn2c(-c3cccc(C(=O)N(C)C)c3)cnc12")
"8.58 µM (active)"
>>> observed_result("Cn1c(N=Nc2ccc(N3CCOCC3)cc2)[n+](C)c2ccccc21")
"2.36 µM (active)"

Problem: Give AC50 for `CCN(CC)CCN(Cc1cc2cc3c(cc2nc1O)OCCO3)C(S)=NCCCN(C)C` tested on UniProt:P43351.
Solution: 12.9 µM (active)

----------
- MEASUREMENT TARGET: Kappa-type opioid receptor (Homo sapiens, UniProt P41145)
- Sequence (P41145 whole entry): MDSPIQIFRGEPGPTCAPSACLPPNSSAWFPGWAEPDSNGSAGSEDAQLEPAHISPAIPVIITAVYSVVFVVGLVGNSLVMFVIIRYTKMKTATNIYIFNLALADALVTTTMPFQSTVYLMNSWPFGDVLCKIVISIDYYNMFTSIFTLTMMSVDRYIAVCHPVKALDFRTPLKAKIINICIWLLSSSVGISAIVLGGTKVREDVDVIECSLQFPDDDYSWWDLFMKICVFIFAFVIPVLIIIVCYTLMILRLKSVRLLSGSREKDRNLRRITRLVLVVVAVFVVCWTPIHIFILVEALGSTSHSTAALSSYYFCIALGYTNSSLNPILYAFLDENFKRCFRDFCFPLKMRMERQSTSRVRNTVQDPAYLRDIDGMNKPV
- Format: functional
READOUT KIND: IC50

>>> observed_result("COc1ccc(-c2csc(N3C(=N)SCC3=O)n2)cc1")
"> 32 µM"

Now take the following molecule into account.
Problem: Retrieve IC50 measured for `Cc1ccc2oc(Nc3nc(O)cc(-c4ccccc4)n3)nc2c1` and print it.
Solution: > 32 µM

----------
- ASSAY METHOD TEXT: cytotoxicity toward NIH3T3 fibroblasts, dose response, counter-screen, cell-based, ATP luminescence, mouse fibroblasts (AID 2010);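 also: cells exposed to compound for about 90 hours before reading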
- Format: functional
READOUT KIND: EC50

Problem: Write down EC50 measured for item Cc1ccc(C2=NN(C(=O)c3cccs3)C(c3ccccc3O)C2)cc1 (configuration not stated)
Solution: > 60 µM (not active)

Problem: Check the records and state EC50 for `Cc1ccc2oc(Nc3nc(O)cc(-c4ccccc4)n3)nc2c1`
Solution: > 30 µM (not active)

Problem: Given the molecule `Cc1cc(SCC(=O)N/N=C/c2ccc(O)cc2O)c(C)cc1Br` , write its reported EC50.
Solution: > 60 µM (inconclusive)

Problem: Check the records and state EC50 for C=CCN1C(=O)C(CC(=O)Nc2ccc(OCCC)cc2)N(CCCN2CCN(Cc3ccccc3)CC2)C1=S (configuration not stated)
Solution: > 60 µM (not active)

Problem: Specify measured EC50 for COC(=O)c1c(NC(=O)Cn2cnc([N+](=O)[O-])n2)sc2c1CCC(C)C2 (configuration not stated) .
Solution: > 60 µM (inconclusive)

Problem: Hello, please tell me recorded EC50 for this one: `COc1cc(CCN2C(=O)c3cccc4cccc(c34)C2=O)c(S(=O)(=O)N2CCCCCC2)cc1OC`
Solution: > 30 µM (not active)

Problem: Determine from records and report EC50 for `COc1ccc(NC(=O)c2[nH]c(C)c(C(C)=O)c2C)cc1S(=O)(=O)Nc1ccc(Br)cc1`
Solution: > 60 µM (not active)

----------
As shown below, each of these compounds has a reported EC50 value.
- ASSAY METHOD TEXT: Luminescence Cell-Based Dose Confirmation HTS to Identify Inhibitors of Platelet Dense Granule Release. [Related pubchem assays: 1663 (Primary HTS), 1678 (Summary of Project)]
- Type: functional
Activity calls are given as the source filed them.

>>> observed_result("COc1ccc(C(=O)Nc2ccccc2C(=O)N/N=C/c2ccco2)cc1")
"4.14 µM (active)"

Problem: Supply measured EC50 of `O=C(Nc1ccc(F)cc1)Nc1ccccc1F` in your reply.
Solution: 12.1 µM (active)

Problem: Output EC50 of `Cn1c(=O)n(C)c2cc(S(=O)(=O)NCc3ccccc3)ccc21`
Solution: > 112 µM (not active)

Problem: Quote EC50 reported for `COc1ccc(C(=O)Nc2ccccc2C(=O)N/N=C/c2ccccc2OC)cc1` please.
Solution: 1.11 µM (active)

Problem: Report measured EC50; entry is `COc1ccc(/C=N/NC(=O)c2ccncc2)cc1CN1CCN(c2ccc(F)cc2)CC1`
Solution: > 112 µM (not active)

----------
- MEASUREMENT TARGET: Voltage-dependent T-type calcium channel subunit alpha-1H (Homo sapiens);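 also: channel activity triggered by adding a high calcium stimulation buffer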
- Sequence (O95180 whole entry): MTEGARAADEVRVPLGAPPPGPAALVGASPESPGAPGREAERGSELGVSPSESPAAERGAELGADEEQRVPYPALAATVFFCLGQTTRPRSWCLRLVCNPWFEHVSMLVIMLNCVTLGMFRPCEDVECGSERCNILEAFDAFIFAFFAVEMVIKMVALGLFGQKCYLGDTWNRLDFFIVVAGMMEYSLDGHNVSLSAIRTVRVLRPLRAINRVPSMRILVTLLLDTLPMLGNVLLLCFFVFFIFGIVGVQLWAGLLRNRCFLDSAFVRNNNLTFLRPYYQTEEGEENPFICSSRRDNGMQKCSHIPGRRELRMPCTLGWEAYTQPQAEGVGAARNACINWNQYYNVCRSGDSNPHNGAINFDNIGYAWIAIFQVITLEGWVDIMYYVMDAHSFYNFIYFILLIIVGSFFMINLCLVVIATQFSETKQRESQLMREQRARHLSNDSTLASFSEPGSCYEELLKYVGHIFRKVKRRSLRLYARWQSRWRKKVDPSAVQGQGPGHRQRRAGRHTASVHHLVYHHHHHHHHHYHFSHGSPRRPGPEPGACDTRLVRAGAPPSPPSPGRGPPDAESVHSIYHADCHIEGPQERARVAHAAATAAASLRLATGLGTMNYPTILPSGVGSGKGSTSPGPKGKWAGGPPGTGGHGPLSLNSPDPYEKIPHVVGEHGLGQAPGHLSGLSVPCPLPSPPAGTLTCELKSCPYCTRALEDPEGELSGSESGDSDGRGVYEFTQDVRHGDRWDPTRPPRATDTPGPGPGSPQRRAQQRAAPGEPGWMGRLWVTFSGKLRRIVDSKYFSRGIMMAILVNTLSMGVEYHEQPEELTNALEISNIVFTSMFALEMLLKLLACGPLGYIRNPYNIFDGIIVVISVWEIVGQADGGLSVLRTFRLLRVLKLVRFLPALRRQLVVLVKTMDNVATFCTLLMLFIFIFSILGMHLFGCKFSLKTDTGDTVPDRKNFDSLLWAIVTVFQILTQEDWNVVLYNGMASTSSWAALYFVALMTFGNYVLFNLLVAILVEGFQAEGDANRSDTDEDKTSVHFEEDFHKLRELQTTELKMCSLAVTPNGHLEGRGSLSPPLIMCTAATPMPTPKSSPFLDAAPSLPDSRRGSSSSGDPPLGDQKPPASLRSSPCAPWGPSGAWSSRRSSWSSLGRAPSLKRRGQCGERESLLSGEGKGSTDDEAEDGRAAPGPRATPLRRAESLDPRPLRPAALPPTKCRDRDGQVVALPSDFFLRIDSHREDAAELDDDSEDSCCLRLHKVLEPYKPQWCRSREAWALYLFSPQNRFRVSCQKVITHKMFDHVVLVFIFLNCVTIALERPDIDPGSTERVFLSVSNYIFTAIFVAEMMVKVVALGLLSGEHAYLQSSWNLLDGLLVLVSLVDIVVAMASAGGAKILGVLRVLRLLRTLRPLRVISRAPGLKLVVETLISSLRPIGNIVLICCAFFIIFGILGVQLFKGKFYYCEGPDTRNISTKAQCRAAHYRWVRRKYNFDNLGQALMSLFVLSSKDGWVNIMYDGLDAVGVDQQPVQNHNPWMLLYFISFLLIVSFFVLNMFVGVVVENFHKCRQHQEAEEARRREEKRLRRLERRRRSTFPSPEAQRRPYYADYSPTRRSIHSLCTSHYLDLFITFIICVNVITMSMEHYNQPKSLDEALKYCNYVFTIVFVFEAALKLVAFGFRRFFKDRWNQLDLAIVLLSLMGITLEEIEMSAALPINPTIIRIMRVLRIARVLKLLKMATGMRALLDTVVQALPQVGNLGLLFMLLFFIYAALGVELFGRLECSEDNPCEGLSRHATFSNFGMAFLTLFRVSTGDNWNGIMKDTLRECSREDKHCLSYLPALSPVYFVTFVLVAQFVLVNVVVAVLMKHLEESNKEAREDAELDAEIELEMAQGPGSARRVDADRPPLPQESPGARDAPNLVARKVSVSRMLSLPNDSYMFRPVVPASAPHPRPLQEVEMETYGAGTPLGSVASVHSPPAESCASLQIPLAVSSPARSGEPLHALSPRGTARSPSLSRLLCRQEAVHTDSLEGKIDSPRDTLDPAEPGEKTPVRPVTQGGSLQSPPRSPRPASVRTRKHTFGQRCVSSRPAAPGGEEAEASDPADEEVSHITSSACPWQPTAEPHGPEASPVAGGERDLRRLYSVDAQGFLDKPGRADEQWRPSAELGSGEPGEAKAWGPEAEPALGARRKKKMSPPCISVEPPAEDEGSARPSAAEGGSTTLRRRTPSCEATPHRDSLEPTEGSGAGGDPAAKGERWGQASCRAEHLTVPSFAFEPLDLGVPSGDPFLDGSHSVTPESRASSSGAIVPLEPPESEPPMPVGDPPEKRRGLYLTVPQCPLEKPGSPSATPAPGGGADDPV
- Type: functional
Activity calls are given as the source filed them.
READOUT KIND: EC50

>>> observed_result("CN1/C(=C\\C(=O)CN2C(=O)NC3(CCCCCC3)C2=O)C(C)(C)c2ccccc21")
"27.4 µM (active)"

Problem: Name the recorded EC50 of `CCN(CC)S(=O)(=O)c1ccc(N(C)Cc2ccc(C(F)(F)F)cc2)nc1` , assay system Voltage-dependent T-type calcium channel subunit alpha-1H (Homo sapiens).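 Also: channel activity triggered by adding a high calcium stimulation buffer.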
Solution: 10.4 µM (active)

Problem: Enter EC50 (test system Voltage-dependent T-type calcium channel subunit alpha-1H (Homo sapiens)) for O=C(C1CCCN(S(=O)(=O)c2ccc(Cl)cc2)C1)N(Cc1cccs1)C1CC1 (stereo not drawn);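 also: channel activity triggered by adding a high calcium stimulation buffer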
Solution: 6.78 µM (active)

Problem: Tell me EC50 of N#CC(c1cccc(C(F)(F)F)c1)(c1ncc(C(F)(F)F)cc1Cl)N1CCOCC1 (stereo not drawn) when tested on Voltage-dependent T-type calcium channel subunit alpha-1H (Homo sapiens).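 Also: channel activity triggered by adding a high calcium stimulation buffer.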
Solution: 2.49 µM (active)

Problem: Give EC50; test system Voltage-dependent T-type calcium channel subunit alpha-1H (Homo sapiens); compound `O=C(c1cc2sccc2n1Cc1ccccc1)N1CCCc2ccccc21`;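 also: channel activity triggered by adding a high calcium stimulation buffer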
Solution: 5.98 µM (active)

----------
Entries below carry reported AC50 on Cytochrome P450 2D6 (Homo sapiens).
Sequence (P10635 whole entry): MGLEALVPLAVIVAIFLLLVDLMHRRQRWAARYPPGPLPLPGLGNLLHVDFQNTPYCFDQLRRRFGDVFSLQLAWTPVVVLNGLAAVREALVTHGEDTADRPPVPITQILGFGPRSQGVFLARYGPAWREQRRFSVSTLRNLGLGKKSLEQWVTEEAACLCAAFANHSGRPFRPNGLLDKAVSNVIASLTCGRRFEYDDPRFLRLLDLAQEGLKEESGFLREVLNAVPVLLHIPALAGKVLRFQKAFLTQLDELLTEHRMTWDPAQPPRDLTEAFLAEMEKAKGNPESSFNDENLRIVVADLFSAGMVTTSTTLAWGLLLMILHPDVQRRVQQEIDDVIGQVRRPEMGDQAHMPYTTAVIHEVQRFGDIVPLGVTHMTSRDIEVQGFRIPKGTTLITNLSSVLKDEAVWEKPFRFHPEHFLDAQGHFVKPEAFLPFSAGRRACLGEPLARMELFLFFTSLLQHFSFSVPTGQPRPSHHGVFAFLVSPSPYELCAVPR

Recorded results for 2 compounds are shown here.
>>> observed_result("FC(F)(F)c1nc(N2CCCC2)ncc1-c1nnnn1-c1ccccc1")
"12.6 µM (inconclusive)"
>>> observed_result("CC(C)(C)NS(=O)(=O)c1ccc(NC(=O)NC2CCCCC2)cc1")
"17.8 µM (inconclusive)"

Problem: Give the reported AC50 for this compound. `CCOC(=O)CC(=O)CSc1n[nH]c2c3ccccc3nc-2n1`
Solution: 3.55 µM (inconclusive)

----------
AC50 by entry:
- ASSAY METHOD TEXT: Luminescence Cell-Based Dose Retest to Confirm Inhibitors of Cancer Stem Cells. [Related pubchem assays (depositor defined):AID2717, AID2721]
- Type: functional
- SETTINGS: Homo sapiens
Activity calls are given as the source filed them.

Before answering, review these 5 worked examples.
>>> observed_result("COc1cccc(C2C3=C(N=c4s/c(=C\\c5cccc(O)c5)c(=O)n42)c2ccccc2CC3)c1OC (stereo not drawn)")
"4.06 µM (active)"
>>> observed_result("Cc1cc(SCC(=O)N/N=C/c2ccc(O)cc2O)c(C)cc1Br")
"4.49 µM (active)"
>>> observed_result("CCOC(=O)CS(=O)(=O)c1nc(-c2ccccc2)cc(C(F)(F)F)n1")
"2.77 µM (active)"
>>> observed_result("CC(NC(=O)COC(=O)c1cc(NS(=O)(=O)c2ccc(Cl)c([N+](=O)[O-])c2)ccc1O)C1CC2CCC1C2 (stereo not drawn)")
"3.17 µM (active)"
>>> observed_result("COc1cc(CNC(C)c2ccccc2)cc(Br)c1OCc1ccccc1 (stereo not drawn)")
"5.92 µM (active)"

Problem: Fill in AC50 for record `Cc1cccc(-c2nc(C#N)c(NC3CCCCC3)o2)c1`
Solution: 2.45 µM (active)

Problem: Tell us which AC50 value is on record for `COc1ccc(NS(=O)(=O)c2ccc3[nH]c(COc4cccc5ccccc45)nc3c2)cc1`
Solution: 3.87 µM (active)

Problem: // Input: `Cc1nc(Nc2ccc(Cl)cc2Cl)sc1C(=O)Nc1ccccc1` . Output its AC50 only.
Solution: 7.83 µM (active)

----------
# AC50 listing for each entry below
- MEASUREMENT TARGET: DNA repair and recombination protein RAD54-like (Homo sapiens, UniProt Q92698)
- Sequence (Q92698 whole entry): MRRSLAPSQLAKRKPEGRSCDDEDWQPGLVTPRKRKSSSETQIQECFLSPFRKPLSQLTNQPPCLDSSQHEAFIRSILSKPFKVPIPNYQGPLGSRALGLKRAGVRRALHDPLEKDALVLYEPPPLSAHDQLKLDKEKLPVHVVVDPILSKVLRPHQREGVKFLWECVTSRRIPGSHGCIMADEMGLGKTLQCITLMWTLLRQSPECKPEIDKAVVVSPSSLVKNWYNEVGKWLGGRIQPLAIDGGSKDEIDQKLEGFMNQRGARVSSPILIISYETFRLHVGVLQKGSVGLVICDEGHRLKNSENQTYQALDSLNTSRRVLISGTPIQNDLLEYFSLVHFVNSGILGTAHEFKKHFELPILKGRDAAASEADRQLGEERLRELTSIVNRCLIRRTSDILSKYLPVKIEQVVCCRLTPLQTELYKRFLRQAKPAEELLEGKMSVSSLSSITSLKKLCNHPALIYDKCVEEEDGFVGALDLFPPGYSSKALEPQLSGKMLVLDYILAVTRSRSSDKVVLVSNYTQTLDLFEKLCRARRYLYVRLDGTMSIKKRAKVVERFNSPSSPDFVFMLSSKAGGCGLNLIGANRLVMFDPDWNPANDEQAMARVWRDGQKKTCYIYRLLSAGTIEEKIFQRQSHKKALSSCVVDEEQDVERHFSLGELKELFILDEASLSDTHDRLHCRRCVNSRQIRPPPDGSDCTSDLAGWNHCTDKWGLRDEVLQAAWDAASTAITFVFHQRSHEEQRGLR
- ASSAY METHOD TEXT: inhibitors of human RAD54 branch migration, confirmation, biochemical, fluorescence, cherry-picked samples, dose series (AID 651657)
- Type: functional
Active and inactive are the calls of the source.

These recorded examples may help you get a feel for the data.
>>> observed_result("OC1CCCN(Cc2c3ccccc3cc3ccccc23)C1 (stereo not given)")
"4.09 µM (active)"
>>> observed_result("CN1CCN(c2ccc(N)cc2)CC1")
"21.9 µM (active)"
>>> observed_result("COc1cc2nc3c(O)n(CCN4CCCCC4)cnc-3c2cc1OC")
"36.3 µM (active)"
>>> observed_result("Cn1c(C(=O)NCCCN2CCOCC2)cc2c(=O)n(C)c3ccccc3c21")
"26.1 µM (active)"

// next entry
Problem: Give the reported value of AC50 for this record: `CN(C)CCCNc1ncnc2sc(-c3ccccc3)cc12`
Solution: 17.4 µM (active)
